Target: Neuraminidase (Influenza A virus (A/Memphis/1/1971(H3N2)), UniProt P03471, E119V)
Parameters: species or system Influenza A virus (A/Fukui/45/2004(H3N2))
readout_kind: IC50 (µM)

[[record]]
smiles_str = "CC(=O)N[C@@H]1[C@@H](O)[C@@H](F)[C@](F)(C(=O)O)O[C@H]1[C@H](O)CCO"
readout_kind = "IC50"
assay_value = 4.4

[[record]]
smiles_str = "CC(=O)N[C@@H]1C[C@@H](F)[C@](F)(C(=O)O)O[C@H]1[C@H](O)[C@H](O)CO"
readout_kind = "IC50"
assay_value = 3.67


* * *

Molecular target: Neuraminidase (Influenza A virus (A/Memphis/1/1971(H3N2)), UniProt P03471, E119V)
Parameters: species or system Influenza A virus (A/Fukui/45/2004(H3N2))
readout_kind: IC50 (µM)

[[record]]
smiles_str = "CC(=O)N[C@@H]1[C@@H](O)[C@@H](F)[C@](F)(C(=O)O)O[C@H]1[C@H](O)CCO"
readout_kind = "IC50"
assay_value = 25.1

[[record]]
smiles_str = "CC(=O)N[C@@H]1C[C@@H](F)[C@](F)(C(=O)O)O[C@H]1[C@H](O)[C@H](O)CO"
readout_kind = "IC50"
assay_value = 3.71

